system: UniProt:P13661
Sequence (P13661 26-276): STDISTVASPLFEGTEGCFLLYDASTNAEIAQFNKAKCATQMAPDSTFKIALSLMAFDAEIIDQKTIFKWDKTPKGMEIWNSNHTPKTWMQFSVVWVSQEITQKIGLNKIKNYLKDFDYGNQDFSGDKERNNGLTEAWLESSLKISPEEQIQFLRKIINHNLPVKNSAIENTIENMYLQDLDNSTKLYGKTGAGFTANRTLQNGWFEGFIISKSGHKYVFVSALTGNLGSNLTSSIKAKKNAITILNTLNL
procedure text: Beta-lactamase enzyme inhibition (IC50)
reported property: pIC50
Notebook: values listed as pIC50 are -log10 of the concentration (mol/L).

For the compound CCC(=O)N[C@H]1Cc2cccc(C(=O)O)c2OB1O [Compound 2] , the measured pIC50 on UniProt:P13661 was 7.18

* * *

procedure text: Metabolic stability in liver S9
Format: in vitro ADME
assay setup: liver S9; Human; test conc. 3 μM
reported property: half-life at 3 μM (min)
Write it as a number; the unit min goes unstated.

The measured half-life at 3 μM associated with COCC1=C(C(=O)OC(C)OC(=O)OC(C)C)N2C(=O)[C@@H](NC(=O)/C(=N\OC)c3csc(N)n3)[C@H]2SC1 (some centres unmarked) [Cefpodoxime proxetil] reads 3.4
